These measurements were taken from patent US20240287082A1.

Measured Ki, listed per entry for reference.
Target: human GABAA α2β2γ1 receptor (Homo sapiens (Human), UniProt P47869+Q8N1C3)
Experiment: Radioligand binding assay, competition for [3H]RO7239181, γ1-containing GABAA subtype α2β2γ1
Settings: read-out: Ki h-GABAA α2β2γ1; Table 2; membranes of HEK293F cells, [3H]RO7239181
Protocol: The affinity of compounds at GABAA γ1 subunit-containing receptors was measured by competition for [^3H]RO7239181 (67.3 Ci/mmol; Roche) binding to membranes from HEK293F cells (ThermoFisher R^79007) expressing human (transiently transfected) receptors of composition α5β2γ1, α2β2γ1, α1β2γ1. […]
reported_property: Ki (nM)

mol_smiles=CCc1cn2c(nc1=O)[C@H](C)N=C(c1c(F)cccc1F)c1c-2ccc(Cl)c1Cl observed_result=15.6
mol_smiles=O=c1nc2n(cc1Br)-c1ccc(Cl)c(Cl)c1C(c1c(F)cccc1F)=NC2 observed_result=10.6
mol_smiles=CCc1cn2c(nc1=O)[C@H](C)N=C(c1c(F)cccc1F)c1c-2ccc(C(F)(F)F)c1Cl observed_result=40.1
mol_smiles=O=c1ccn2c(n1)CN=C(c1c(F)cccc1F)c1c-2ccc(Cl)c1Cl observed_result=9.7
mol_smiles=O=c1ccn2c(n1)CN=C(c1c(F)cccc1F)c1c-2ccc(Cl)c1Br observed_result=13.7

----------
Measured Efficacy (GABA) %, listed per entry for reference.
target: h-GABA-A α2β2γ1 (Homo sapiens (Human), UniProt P47869+Q8N1C3); test: Two-electrode voltage clamp electrophysiology in Xenopus oocytes expressing GABAA receptors, modulation of GABA EC20 current; assay type: cell-based; conditions: % modulation of GABA EC20 = 100*(Fold increase−1), compound at 30-fold Ki α2β2γ1
reported_property: Efficacy (GABA) % (%)

mol_smiles=C[C@@H]1N=C(c2c(F)cccc2F)c2c(ccc(Br)c2Cl)-n2cc(Br)c(=O)nc21 system_under_test="h-GABA-A α2β2γ1 (Homo sapiens (Human), UniProt P47869+Q8N1C3)" units_of_measure=% observed_result=71
mol_smiles=CCOCCc1cn2c(nc1=O)[C@H](C)N=C(c1c(F)cccc1F)c1c-2ccc(Cl)c1Cl system_under_test="h-GABA-A α2β2γ1 (Homo sapiens (Human), UniProt P47869+Q8N1C3)" units_of_measure=% observed_result=113
mol_smiles=CCO/C=C/c1cn2c(nc1=O)CN=C(c1c(F)cccc1F)c1c-2ccc(Cl)c1Cl system_under_test="h-GABA-A α2β2γ1 (Homo sapiens (Human), UniProt P47869+Q8N1C3)" units_of_measure=% observed_result=113
mol_smiles=Cc1ccc2c(c1Cl)C(c1c(F)cccc1F)=N[C@@H](C)c1nc(=O)c(C)cn1-2 system_under_test="h-GABA-A α2β2γ1 (Homo sapiens (Human), UniProt P47869+Q8N1C3)" units_of_measure=% observed_result=115

----------
biological target: human GABAA α2β2γ1 receptor (Homo sapiens (Human), UniProt P47869+Q8N1C3); assay: Radioligand binding assay, competition for [3H]RO7239181, γ1-containing GABAA subtype α2β2γ1; details: read-out: Ki h-GABAA α2β2γ1; Table 2; membranes of HEK293F cells, [3H]RO7239181
Measured Ki, listed per entry for reference.
reported_property: Ki (nM)

mol_smiles=O=c1ccn2c(n1)CN=C(c1c(F)cccc1F)c1c-2ccc(Br)c1Cl reported_property=Ki observed_result=4.6
mol_smiles=C[C@@H]1N=C(c2c(F)cccc2F)c2c(ccc(Cl)c2Br)-n2ccc(=O)nc21 reported_property=Ki observed_result=49.9
mol_smiles=Cc1cn2c(nc1=O)[C@H](C)N=C(c1c(F)cccc1F)c1c-2ccc(C(F)(F)F)c1Cl reported_property=Ki observed_result=28.4
mol_smiles=C[C@@H]1N=C(c2c(F)cccc2F)c2c(ccc(Cl)c2Cl)-n2ccc(=O)nc21 reported_property=Ki observed_result=13.3
